Where do the numbers come from? From PubChem BioAssay AID1745844.

test system: rodent lifetime carcinogenesis bioassay, tumor incidence TD50; experiment: carcinogenic potency in animals, long-term in vivo studies, CPDB compilation (AID 1745844); conditions: mouse; strain B6C3F1; females; in feed; site: ovary; lesion: granulosa-cell tumor + mixed tumor, benign; dosed 103 weeks; study length 104 weeks
endpoint: TD50 (mg/kg/day)
Quick reminder: number only, in mg/kg/day, skip the unit.

Record NC(=O)NN=Cc1ccc([N+](=O)[O-])o1 has rodent lifetime carcinogenesis bioassay, tumor incidence TD50 TD50 equal to 22.4

###

system: rodent lifetime carcinogenesis bioassay, tumor incidence TD50; experiment: carcinogenic potency in animals, long-term in vivo studies, CPDB compilation (AID 1745844); conditions: rat; strain Fischer 344; males; in feed; site: any site (literature study); lesion: several types; types named in the paper; dosed 101 weeks; study length 101 weeks
endpoint: TD50 (mg/kg/day)
Quick reminder: number only, in mg/kg/day, skip the unit.

# TD50 (compound: Cc1cc(C)c(N)cc1C ) is 138

###

tested on: rodent lifetime carcinogenesis bioassay, tumor incidence TD50; experiment: carcinogenic potency in animals, long-term in vivo studies, CPDB compilation (AID 1745844); conditions: hamster; strain Syrian Golden; females; by gavage; site: liver; lesion: cholangioadenoma/carcinoma; dosed 50 weeks; study length 65 weeks
endpoint: TD50

# TD50 (compound: O=NC(=O)CCNCCO ) is 2.68 mg/kg/day

###

tested on: rodent lifetime carcinogenesis bioassay, tumor incidence TD50; assay: carcinogenic potency in animals, long-term in vivo studies, CPDB compilation (AID 1745844); settings: rat; strain Donryu; males; in drinking water; site: esophagus; lesion: one or several types; types not named; dosed 65 weeks; study length 65 weeks
endpoint: TD50 (mg/kg/day)
Quick reminder: number only, in mg/kg/day, skip the unit.

# TD50 (compound: CCCCCN(N=O)C(N)=O ) is 1.44

###

tested on: rodent lifetime carcinogenesis bioassay, tumor incidence TD50; test: carcinogenic potency in animals, long-term in vivo studies, CPDB compilation (AID 1745844); details: rat; strain Wistar; males; in feed; site: external auditory canal; lesion: squamous-cell carcinoma; dosed 75 weeks; study length 75 weeks
endpoint: TD50

Record COc1cc2c(cc1N)oc1ccccc12 has rodent lifetime carcinogenesis bioassay, tumor incidence TD50 TD50 equal to 78.2 mg/kg/day

###

tested on: rodent lifetime carcinogenesis bioassay, tumor incidence TD50; experiment: carcinogenic potency in animals, long-term in vivo studies, CPDB compilation (AID 1745844); conditions: rat; strain Charles River CD (Sprague-Dawley); males; i.p.; site: kidney; lesion: several types; types named in the paper; dosed 26 weeks; study length 78 weeks
endpoint: TD50

Record CN(N=O)C(=O)N[C@@H](C=O)[C@@H](O)[C@H](O)[C@H](O)CO has rodent lifetime carcinogenesis bioassay, tumor incidence TD50 TD50 equal to 0.776 mg/kg/day

###

system: rodent lifetime carcinogenesis bioassay, tumor incidence TD50; assay: carcinogenic potency in animals, long-term in vivo studies, CPDB compilation (AID 1745844); details: rat; strain Sprague-Dawley; females; inhaled; site: extrahepatic tissue; lesion: angiosarcoma; dosed 52 weeks; study length 111 weeks
endpoint: TD50

# TD50 (molecule: C=CCl ) is 52.9 mg/kg/day

###

system: rodent lifetime carcinogenesis bioassay, tumor incidence TD50; assay: carcinogenic potency in animals, long-term in vivo studies, CPDB compilation (AID 1745844); conditions: mouse; strain B6C3F1; females; in feed; site: liver; lesion: hepatocellular adenoma; dosed 103 weeks; study length 106 weeks
The source made the active and inactive calls. No rule for the calls is given here.
Field 'call' accepts active, inactive

- compound structure: "Nc1cc(S(=O)(=O)[O-])cc2cc(S(=O)(=O)[O-])c(N=Nc3ccc(-c4ccc(N=Nc5c(S(=O)(=O)[O-])cc6cc(S(=O)(=O)[O-])cc(N)c6c5O)c(O)c4)cc3O)c(O)c12.[Cu].[Cu].[Na+].[Na+].[Na+].[Na+]"
  tgt: "rodent lifetime carcinogenesis bioassay, tumor incidence TD50"
  category: "active"

// switching to the query compound
Qu. Hi, sorry to bother you, what did the test record for Nc1ccc(N)c2c1C(=O)c1c(N)ccc(N)c1C2=O ?
Ans. inactive
